# reported inhibition at 20 µM; entries follow
Biological target: JARID1B (Homo sapiens, UniProt Q9UGL1)
Construct: The FLAG tagged full length JARID1B enzyme was expressed in Sf21 insect cells using FLAG-JARID1B baculoviruses; FLAG (N); made in house; host or cells: Sf21 insect cells (baculovirus)
Sequence (Q9UGL1 whole entry): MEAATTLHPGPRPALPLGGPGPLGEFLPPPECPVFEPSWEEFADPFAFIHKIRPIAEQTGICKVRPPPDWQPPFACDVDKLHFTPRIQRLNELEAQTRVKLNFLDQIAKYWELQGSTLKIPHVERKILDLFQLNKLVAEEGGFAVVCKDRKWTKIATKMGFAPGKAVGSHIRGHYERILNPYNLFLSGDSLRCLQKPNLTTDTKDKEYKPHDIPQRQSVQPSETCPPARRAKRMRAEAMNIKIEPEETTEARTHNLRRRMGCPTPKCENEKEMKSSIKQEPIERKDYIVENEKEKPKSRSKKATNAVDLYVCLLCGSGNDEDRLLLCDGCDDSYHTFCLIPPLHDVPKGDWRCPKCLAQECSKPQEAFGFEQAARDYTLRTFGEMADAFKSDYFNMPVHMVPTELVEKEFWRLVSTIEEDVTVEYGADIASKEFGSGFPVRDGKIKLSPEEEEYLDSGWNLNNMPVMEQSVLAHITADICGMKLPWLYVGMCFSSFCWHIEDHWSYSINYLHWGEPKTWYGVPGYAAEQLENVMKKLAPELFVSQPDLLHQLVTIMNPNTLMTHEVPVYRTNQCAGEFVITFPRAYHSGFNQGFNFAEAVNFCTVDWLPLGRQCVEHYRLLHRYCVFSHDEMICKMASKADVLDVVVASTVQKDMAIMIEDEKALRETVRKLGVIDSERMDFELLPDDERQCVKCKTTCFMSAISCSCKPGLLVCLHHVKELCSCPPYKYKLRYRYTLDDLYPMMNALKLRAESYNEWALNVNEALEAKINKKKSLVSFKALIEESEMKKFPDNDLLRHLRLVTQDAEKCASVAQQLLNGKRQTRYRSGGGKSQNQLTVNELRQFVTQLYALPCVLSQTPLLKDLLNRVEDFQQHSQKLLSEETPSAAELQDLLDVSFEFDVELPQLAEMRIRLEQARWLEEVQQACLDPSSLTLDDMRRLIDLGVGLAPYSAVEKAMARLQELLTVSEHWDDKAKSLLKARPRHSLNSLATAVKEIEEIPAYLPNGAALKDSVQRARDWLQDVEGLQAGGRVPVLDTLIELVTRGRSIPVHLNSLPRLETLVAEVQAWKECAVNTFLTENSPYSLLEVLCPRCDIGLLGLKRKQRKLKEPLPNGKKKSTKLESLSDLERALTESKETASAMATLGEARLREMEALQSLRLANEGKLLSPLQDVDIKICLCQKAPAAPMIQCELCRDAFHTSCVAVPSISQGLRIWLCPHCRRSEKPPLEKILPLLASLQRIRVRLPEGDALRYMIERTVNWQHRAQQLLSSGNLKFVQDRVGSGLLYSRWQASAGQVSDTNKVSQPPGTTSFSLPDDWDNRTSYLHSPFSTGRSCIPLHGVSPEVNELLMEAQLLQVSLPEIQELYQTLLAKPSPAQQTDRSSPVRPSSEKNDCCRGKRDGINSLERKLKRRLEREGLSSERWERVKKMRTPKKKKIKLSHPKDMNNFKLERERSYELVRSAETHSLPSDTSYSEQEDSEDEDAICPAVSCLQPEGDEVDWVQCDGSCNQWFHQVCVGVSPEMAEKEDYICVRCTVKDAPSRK
Assay: FLAG-JARID1B histone demethylase assay with AlphaScreen detection (HTS and dose response)
Format: biochemical
Conditions: high-throughput screen, compound 20 μM, IDs marked *: additional hits under reaction condition with 1 mM α-KG; read-out: Inhibitory effect (percent)
The answer consists of two parts: a number and, after it, its unit.

> print(dat)
                                   molecule         test.readout  measurement
1  O=c1c2ccccc2[se]n1-c1ccccc1 [YU034226, EBSELEN, reference compound]  inhibition at 20 µM        56.5%
2  O=C1c2c(O)cccc2Cc2cccc(O)c21 [YU033694, ANTHRALIN, reference compound]  inhibition at 20 µM        51.7%
3  CCN(CC)C(=S)SSC(=S)N(CC)CC [YU035331, reference compound]  inhibition at 20 µM        40.5%

Next molecule, please.
Incoming: Supply measured inhibition at 20 µM of COc1ccc(-c2coc3cc(O)ccc3c2=O)c(O)c1O [YU155016, KOPARIN, reference compound] in your reply.
Outgoing: 42.3%

====

Target: JARID1B (Homo sapiens, UniProt Q9UGL1)
Construct: The FLAG tagged full length JARID1B enzyme was expressed in Sf21 insect cells using FLAG-JARID1B baculoviruses; FLAG (N); made in house; host or cells: Sf21 insect cells (baculovirus)
Test: FLAG-JARID1B histone demethylase assay with AlphaScreen detection (HTS and dose response);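 further: FLAG-tagged JARID1B at 4 nM acting on a biotinylated H3K4me3 peptide, demethylation read by AlphaScreen luminescence, with hits checked against bio-H3K4me2 without enzyme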;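 on Assay − Artifact Signal (percent): compound tested at 20 µM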
Type: biochemical
Conditions: assay signal minus artifact signal
Where a name gives a salt, the structure may show the parent alone.
Checkbox rule: Assay − Artifact Signal (percent) lower than 30% = 1 (yes); Assay − Artifact Signal (percent) not lower than 30% = 0 (no).

> print(dat)
                                   compound  label.class
1  Cc1cccc(NC(c2ccncc2)c2ccc3cccnc3c2O)c1 (stereo not shown) [YU172170]      1 (yes)
2  NC[C@H](O)c1ccc(O)c(O)c1 [YU033927, NOREPINEPHRINE, reference compound]       0 (no)
3  NCCc1ccc(O)c(O)c1 [YU033802, DOPAMINE HYDROCHLORIDE, reference compound]       0 (no)
4  CCN(CC)CCOc1ccc(/C(=C(\Cl)c2ccccc2)c2ccccc2)cc1 [YU033752, CLOMIPHENE CITRATE, reference compound]      1 (yes)
5  Clc1ccc2nc(-c3ccccn3)c(Nc3ccc4c(c3)OCO4)n2c1 [YU173003]       0 (no)

Incoming: Bench note: check whether O=C1c2ccccc2C(=O)c2c(NCCc3ccc(O)cc3)ccc(NCCc3ccc(O)cc3)c21 [YU019467, BML-266, reference compound] shows Assay − Artifact Signal (percent) below 30%
Outgoing: 1 (yes)

Incoming: Is the reported Assay − Artifact Signal (percent) for COc1c(O)cc2c(c1O)[C@@H]1O[C@H](CO)[C@@H](O)[C@H](O)[C@H]1OC2=O [YU155621, BERGENIN, reference compound] strictly below 30%?
Outgoing: 0 (no)
